Target: DNA topoisomerase 2-alpha (Homo sapiens) (UniProt P11388)
Sequence (P11388 whole entry): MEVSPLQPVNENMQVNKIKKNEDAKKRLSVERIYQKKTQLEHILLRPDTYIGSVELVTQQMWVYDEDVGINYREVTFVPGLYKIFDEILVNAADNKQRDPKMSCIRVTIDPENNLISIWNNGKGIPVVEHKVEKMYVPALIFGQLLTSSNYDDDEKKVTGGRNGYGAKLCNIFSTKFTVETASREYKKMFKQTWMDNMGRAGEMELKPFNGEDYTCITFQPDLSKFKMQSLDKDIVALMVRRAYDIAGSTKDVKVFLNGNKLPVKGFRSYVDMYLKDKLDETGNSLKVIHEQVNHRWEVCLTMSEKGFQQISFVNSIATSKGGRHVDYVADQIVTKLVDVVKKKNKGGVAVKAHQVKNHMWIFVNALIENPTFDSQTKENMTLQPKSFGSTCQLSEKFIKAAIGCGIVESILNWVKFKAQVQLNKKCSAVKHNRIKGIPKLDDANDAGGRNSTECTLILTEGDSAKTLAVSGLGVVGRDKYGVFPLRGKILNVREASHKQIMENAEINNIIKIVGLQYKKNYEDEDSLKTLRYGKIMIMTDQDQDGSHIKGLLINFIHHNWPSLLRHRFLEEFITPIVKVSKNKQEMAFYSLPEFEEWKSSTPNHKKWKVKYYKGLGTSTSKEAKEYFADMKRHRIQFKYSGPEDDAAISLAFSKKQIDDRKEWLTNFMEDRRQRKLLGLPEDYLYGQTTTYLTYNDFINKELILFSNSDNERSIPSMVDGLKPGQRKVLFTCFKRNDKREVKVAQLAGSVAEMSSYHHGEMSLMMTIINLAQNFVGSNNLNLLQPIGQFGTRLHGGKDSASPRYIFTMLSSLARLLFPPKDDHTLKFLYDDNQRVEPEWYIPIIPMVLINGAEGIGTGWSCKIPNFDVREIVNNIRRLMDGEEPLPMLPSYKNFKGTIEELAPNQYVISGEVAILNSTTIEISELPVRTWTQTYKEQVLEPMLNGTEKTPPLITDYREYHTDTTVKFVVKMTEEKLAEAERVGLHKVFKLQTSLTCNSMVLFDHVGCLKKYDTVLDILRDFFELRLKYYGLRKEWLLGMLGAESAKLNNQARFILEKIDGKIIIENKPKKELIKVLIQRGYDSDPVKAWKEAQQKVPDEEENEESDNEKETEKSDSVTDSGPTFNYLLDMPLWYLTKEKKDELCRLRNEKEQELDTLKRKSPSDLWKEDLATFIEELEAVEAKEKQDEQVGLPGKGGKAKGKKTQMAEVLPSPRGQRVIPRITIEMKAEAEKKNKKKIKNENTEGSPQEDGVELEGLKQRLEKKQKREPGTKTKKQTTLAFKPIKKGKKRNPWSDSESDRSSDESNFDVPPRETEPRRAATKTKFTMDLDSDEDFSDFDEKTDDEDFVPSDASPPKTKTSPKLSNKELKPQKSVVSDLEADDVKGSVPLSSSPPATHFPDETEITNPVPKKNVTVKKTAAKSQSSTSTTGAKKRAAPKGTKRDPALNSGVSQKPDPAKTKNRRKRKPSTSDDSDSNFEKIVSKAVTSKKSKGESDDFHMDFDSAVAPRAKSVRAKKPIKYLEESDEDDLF
Procedure Summary: Inhibition of recombinant human DNA topoisomerase-2alpha using supercoiled pBR322 plasmid DNA as substrate at 20 uM after 30 mins by agarose gel electrophoresis relative to control
Endpoint Label: inhibition (%)

Example entries begin here.
* Oc1ccc(-c2cc(-c3cccs3)cc(-c3ccc(O)cc3)n2)cc1 | 30.3
* Oc1ccccc1-c1cc(-c2ccco2)cc(-c2ccccc2O)n1 | 13.3
* Oc1ccccc1-c1cc(-c2ccsc2)cc(-c2ccccc2O)n1 | 4.7
* Oc1cccc(-c2cc(-c3ccsc3)cc(-c3cccc(O)c3)n2)c1 | 23
* Oc1ccc(-c2cc(-c3ccoc3)cc(-c3ccccc3O)n2)cc1 | 12.8

P: Oc1ccc(-c2cc(-c3ccsc3)cc(-c3ccccc3O)n2)cc1
Q: Oc1ccc(-c2cc(-c3cccnc3)cc(-c3ccc(O)cc3)n2)cc1
Exam item: Select one: P or Q . Criterion: greater recorded inhibition. Answer with the label corresponding to your selection.
Marked response: Q
(Q: 25.7%, P: 9.7%)

###

Target: DNA topoisomerase 1 (Homo sapiens)
Procedure Summary: Inhibition of recombinant human DNA topoisomerase-1 assessed as relaxation of supercoiled DNA pBR322 at 20 uM after 30 mins by agarose gel electrophoresis relative to control
Endpoint Label: inhibition (%)

• Oc1cccc(-c2cc(-c3ccco3)cc(-c3cccc(O)c3)n2)c1 = 0
• Oc1ccc(-c2cc(-c3ccoc3)cc(-c3ccc(O)cc3)n2)cc1 = 0
• Oc1ccc(-c2cc(-c3cccnc3)cc(-c3ccccc3O)n2)cc1 = 0
• Oc1ccc(-c2cc(-c3cccs3)cc(-c3ccc(O)cc3)n2)cc1 = 0.9
• Oc1ccc(-c2cc(-c3ccco3)cc(-c3cccc(O)c3)n2)cc1 = 1.5
• Oc1ccc(-c2cc(-c3cccnc3)cc(-c3ccc(O)cc3)n2)cc1 = 5

A: Oc1cccc(-c2cc(-c3ccsc3)cc(-c3cccc(O)c3)n2)c1
B: Oc1ccc(-c2cc(-c3cccs3)cc(-c3cccc(O)c3)n2)cc1
C: Oc1ccccc1-c1cc(-c2cccs2)cc(-c2ccccc2O)n1
Exam item: List the 3 entries from lowest inhibition to highest inhibition value. Submit the labels in the order that the ranking request calls for.
Marked response: C, B, A
(C: 0.2%, B: 1.1%, A: 4.5%)

###

Target: DNA topoisomerase 2-alpha (Homo sapiens) (UniProt P11388)
Procedure Summary: Inhibition of recombinant human DNA topoisomerase-2alpha using supercoiled pBR322 plasmid DNA as substrate at 100 uM after 30 mins by agarose gel electrophoresis relative to control
Endpoint Label: inhibition (%)

- Oc1ccc(-c2cc(-c3cccs3)cc(-c3ccccc3O)n2)cc1: 76.4
- Oc1cccc(-c2cc(-c3ccsc3)cc(-c3cccc(O)c3)n2)c1: 88.1
- Oc1cccc(-c2cc(-c3ccsc3)cc(-c3ccccc3O)n2)c1: 78.2
- Oc1ccc(-c2cc(-c3ccoc3)cc(-c3cccc(O)c3)n2)cc1: 95
- Oc1cccc(-c2cc(-c3ccco3)cc(-c3ccccc3O)n2)c1: 81.2

P: Oc1cccc(-c2cc(-c3ccoc3)cc(-c3cccc(O)c3)n2)c1
Q: Oc1ccc(-c2cc(-c3ccccn3)cc(-c3ccc(O)cc3)n2)cc1
R: Oc1ccc(-c2cc(-c3cccs3)cc(-c3ccc(O)cc3)n2)cc1
S: Oc1ccc(-c2cc(-c3ccccn3)cc(-c3cccc(O)c3)n2)cc1
T: Oc1cccc(-c2cc(-c3ccccn3)cc(-c3cccc(O)c3)n2)c1
Exam item: Please give the order of these molecules when sorted by inhibition, largest value leading. Your answer should be the labels, listed in the requested order.
Marked response: R, T, Q, S, P
(R: 74.6%, T: 52.2%, Q: 27.4%, S: 11.9%, P: 7.3%)

I: Oc1ccccc1-c1cc(-c2cccs2)cc(-c2ccccc2O)n1
II: Oc1ccccc1-c1cc(-c2ccsc2)cc(-c2ccccc2O)n1
Exam item: Between item I and item II , which reported inhibition is smaller? Refer to your chosen entry by its label in the reply.
Marked response: I

A: Oc1cccc(-c2cc(-c3cccs3)cc(-c3ccccc3O)n2)c1
B: Oc1ccc(-c2cc(-c3cccnc3)cc(-c3cccc(O)c3)n2)cc1
Exam item: Of A versus B , which is the one with smaller reported inhibition? Your choice should be expressed through its label.
Marked response: B
(B: 14.8%, A: 78.1%)

P: Oc1ccc(-c2cc(-c3cccs3)cc(-c3cccc(O)c3)n2)cc1
Q: Oc1ccccc1-c1cc(-c2ccco2)cc(-c2ccccc2O)n1
R: Oc1ccccc1-c1cc(-c2cccnc2)cc(-c2ccccc2O)n1
S: Oc1ccc(-c2cc(-c3ccoc3)cc(-c3ccc(O)cc3)n2)cc1
T: Oc1ccc(-c2cc(-c3ccccn3)cc(-c3ccccc3O)n2)cc1
Exam item: Order the 5 molecules from highest to lowest inhibition. Would you mind listing the labels in the order asked for?
Marked response: P, Q, S, T, R

###

Target: DNA topoisomerase 2-alpha (Homo sapiens) (UniProt P11388)
Procedure Summary: Inhibition of recombinant human DNA topoisomerase-2alpha using supercoiled pBR322 plasmid DNA as substrate at 100 uM after 30 mins by agarose gel electrophoresis relative to control
Endpoint Label: inhibition (%)

* Oc1ccc(-c2cc(-c3ccoc3)cc(-c3ccccc3O)n2)cc1 | 69.3

I: Oc1cccc(-c2cc(-c3cccnc3)cc(-c3ccccc3O)n2)c1
II: Oc1ccc(-c2cc(-c3cccnc3)cc(-c3ccccc3O)n2)cc1
III: Oc1ccc(-c2cc(-c3ccco3)cc(-c3ccc(O)cc3)n2)cc1
IV: Oc1ccccc1-c1cc(-c2ccoc2)cc(-c2ccccc2O)n1
Exam item: Order by inhibition, ascending. In your reply, arrange the labels in the requested order.
Marked response: II, IV, I, III
(II: 8.3%, IV: 12.2%, I: 55.2%, III: 92.3%)

###

Target: DNA topoisomerase 1 (Homo sapiens) (UniProt P11387)
Sequence (P11387 whole entry): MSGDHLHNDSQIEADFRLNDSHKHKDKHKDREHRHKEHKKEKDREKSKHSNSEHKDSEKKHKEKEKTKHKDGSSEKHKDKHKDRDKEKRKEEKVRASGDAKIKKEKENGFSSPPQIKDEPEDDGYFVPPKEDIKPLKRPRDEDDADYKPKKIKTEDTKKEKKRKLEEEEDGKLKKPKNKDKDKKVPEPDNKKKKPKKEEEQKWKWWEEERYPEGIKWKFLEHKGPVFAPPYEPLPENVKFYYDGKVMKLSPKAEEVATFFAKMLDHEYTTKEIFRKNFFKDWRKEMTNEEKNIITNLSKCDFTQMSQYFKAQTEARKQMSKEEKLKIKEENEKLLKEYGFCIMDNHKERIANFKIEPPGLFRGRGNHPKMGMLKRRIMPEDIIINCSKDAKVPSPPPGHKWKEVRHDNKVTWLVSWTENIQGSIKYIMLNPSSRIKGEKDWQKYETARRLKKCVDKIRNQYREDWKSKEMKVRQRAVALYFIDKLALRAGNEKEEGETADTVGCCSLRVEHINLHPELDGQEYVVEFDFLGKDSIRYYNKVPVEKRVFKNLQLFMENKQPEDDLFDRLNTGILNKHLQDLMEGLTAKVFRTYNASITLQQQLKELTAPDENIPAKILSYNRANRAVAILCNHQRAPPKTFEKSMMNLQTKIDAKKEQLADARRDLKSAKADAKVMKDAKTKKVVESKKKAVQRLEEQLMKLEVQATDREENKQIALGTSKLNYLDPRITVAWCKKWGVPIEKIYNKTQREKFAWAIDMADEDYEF
Procedure Summary: Inhibition of recombinant human DNA topoisomerase-1 assessed as relaxation of supercoiled DNA pBR322 at 100 uM after 30 mins by agarose gel electrophoresis relative to control
Endpoint Label: inhibition (%)

See these solved cases before continuing.
* Oc1ccc(-c2cc(-c3ccoc3)cc(-c3ccc(O)cc3)n2)cc1 | 74.9
* Oc1cccc(-c2cc(-c3ccoc3)cc(-c3ccccc3O)n2)c1 | 29.5
* Oc1ccc(-c2cc(-c3cccs3)cc(-c3ccccc3O)n2)cc1 | 72.2

A: Oc1ccc(-c2cc(-c3ccsc3)cc(-c3cccc(O)c3)n2)cc1
B: Oc1ccc(-c2cc(-c3cccs3)cc(-c3ccc(O)cc3)n2)cc1
Exam item: Hi, I'm comparing A with B and wondering which one has the bigger number for inhibition. Any idea? Indicate which entry you chose by stating its label.
Marked response: B
(B: 86.3%, A: 17.1%)

A: Oc1ccc(-c2cc(-c3ccoc3)cc(-c3ccccc3O)n2)cc1
B: Oc1ccc(-c2cc(-c3ccco3)cc(-c3ccccc3O)n2)cc1
Exam item: API: POST /compare with A and B ; response names the item with higher inhibition. Response format: the label of the selected entry.
Marked response: B
(B: 83%, A: 30.1%)

a: Oc1ccc(-c2cc(-c3cccnc3)cc(-c3ccccc3O)n2)cc1
b: Oc1cccc(-c2cc(-c3ccsc3)cc(-c3cccc(O)c3)n2)c1
c: Oc1cccc(-c2cc(-c3ccccn3)cc(-c3ccccc3O)n2)c1
d: Oc1cccc(-c2cc(-c3ccsc3)cc(-c3ccccc3O)n2)c1
e: Oc1ccc(-c2cc(-c3cccs3)cc(-c3cccc(O)c3)n2)cc1
Exam item: # desc sort on inhibition across 5 molecules I'd appreciate it if you listed the labels in the requested order.
Marked response: e, b, c, d, a
(e: 85.7%, b: 59.2%, c: 35.4%, d: 10.2%, a: 1.5%)

###

Target: DNA topoisomerase 2-alpha (Homo sapiens) (UniProt P11388)
Procedure Summary: Inhibition of recombinant human DNA topoisomerase-2alpha using supercoiled pBR322 plasmid DNA as substrate at 20 uM after 30 mins by agarose gel electrophoresis relative to control
Endpoint Label: inhibition (%)

These recorded examples may help you get a feel for the data.
* Oc1cccc(-c2cc(-c3cccs3)cc(-c3cccc(O)c3)n2)c1 | 22.3
* Oc1cccc(-c2cc(-c3ccoc3)cc(-c3ccccc3O)n2)c1 | 7
* Oc1cccc(-c2cc(-c3cccnc3)cc(-c3ccccc3O)n2)c1 | 8.1
* Oc1cccc(-c2cc(-c3ccsc3)cc(-c3ccccc3O)n2)c1 | 11
* Oc1ccccc1-c1cc(-c2cccs2)cc(-c2ccccc2O)n1 | 10.8

P: Oc1ccc(-c2cc(-c3ccsc3)cc(-c3ccc(O)cc3)n2)cc1
Q: Oc1cccc(-c2cc(-c3ccco3)cc(-c3cccc(O)c3)n2)c1
Exam item: Hi team, can someone confirm which has the larger inhibition: P or Q ? Thanks. Could you answer with the label of the item you picked?
Marked response: P
(P: 57.9%, Q: 20.6%)

###

Target: DNA topoisomerase 1 (Homo sapiens)
Procedure Summary: Inhibition of recombinant human DNA topoisomerase-1 assessed as relaxation of supercoiled DNA pBR322 at 20 uM after 30 mins by agarose gel electrophoresis relative to control
Endpoint Label: inhibition (%)

// solved cases for inhibition follow
- Oc1cccc(-c2cc(-c3cccs3)cc(-c3cccc(O)c3)n2)c1: 0
- Oc1ccc(-c2cc(-c3ccsc3)cc(-c3ccc(O)cc3)n2)cc1: 7.5
- Oc1ccc(-c2cc(-c3cccs3)cc(-c3ccccc3O)n2)cc1: 2
- Oc1ccccc1-c1cc(-c2cccnc2)cc(-c2ccccc2O)n1: 0

a: Oc1cccc(-c2cc(-c3cccnc3)cc(-c3cccc(O)c3)n2)c1
b: Oc1cccc(-c2cc(-c3ccccn3)cc(-c3ccccc3O)n2)c1
Exam item: Returns: the label, a or b , whose recorded inhibition is the lower number. Field: selected label. Fill in the label of the entry you choose.
Marked response: b

A: Oc1cccc(-c2cc(-c3ccoc3)cc(-c3cccc(O)c3)n2)c1
B: Oc1ccc(-c2cc(-c3ccoc3)cc(-c3cccc(O)c3)n2)cc1
C: Oc1cccc(-c2cc(-c3cccnc3)cc(-c3ccccc3O)n2)c1
D: Oc1ccccc1-c1cc(-c2ccco2)cc(-c2ccccc2O)n1
E: Oc1ccc(-c2cc(-c3ccoc3)cc(-c3ccccc3O)n2)cc1
Exam item: // ranking: key=inhibition, reverse=True I'd appreciate it if you listed the labels in the requested order.
Marked response: E, A, B, D, C
(E: 3.9%, A: 2%, B: 1.3%, D: 0.2%, C: 0%)
